# key: entry, value: GI50
- Tested on: HCT-15
Reply numerically in µM, unit not repeated.

compound: Nc1cc(CO)cc(Nc2c3ccccc3nc3occc23)c1
value: 25.6

compound: COC(=O)C1=C(C(=O)OC)C(C(=O)OC)C(C(=O)OC)C(C(=O)OC)(C(=O)OC)C(C(=O)OC)=C1C(=O)OC (stereo not given)
value: 8.39

compound: COc1ccc(N2C(=O)C3CC(c4ccc(C)cc4)c4c([nH]c5ccccc45)C3C2=O)cc1 (stereo not given)
value: 8.61

compound: O=C(c1nc2ccc(Cl)cc2nc1O)C(O)c1ccccc1 (stereo not given)
value: 98.6

compound: Fc1cc2nc3n(c2cc1F)C(c1c(Cl)cccc1Cl)SC3 (stereo not given)
value: 17.5

compound: COc1ccc(/C=C2\C[C@H]3[C@@H]4CCC5=C/C(=N/O)CC[C@]5(C)[C@H]4CC[C@]3(C)\C2=N\O)cc1
value: 10.6

compound: CCN(CCCl)c1cc(CN(C)C)cc(NC(=O)c2ccc(C(=O)Nc3cccc(N(CCCl)NN)c3)cc2)c1
value: 0.455

compound: N=C(N)NCCCCCCC(=O)NC(O)C(=O)NCCCCNCCCN (stereo not given)
value: 656

Query: # assay system HCT-15: give GI50 of `Oc1ccc(Cl)cc1Sc1cc(Cl)ccc1O`
Reply: 8.65

Query: # assay system HCT-15: give GI50 of `O=C(c1ccccc1)c1c(CNCc2ccccc2)n(C(=O)c2ccccc2)c2ccccc12`
Reply: 28.8

###

- Test system: A549
- run-description: NCI tumour cell line growth inhibition, 48 h
The source made the active and inactive calls. Rule as the data show it: active = GI50 up to about 1.1 µM and inactive = higher.
Give your call using only these classes: active, inactive

compound: COc1cc2c(c(OC)c1OC)-c1ccc(SC)c(=O)cc1[C@@H](NCc1ccc([N+](=O)[O-])cc1)CC2
assay-system: A549
assigned-label: active

Query: Called result for `CC12CC(Br)(Br)C(=O)C3C1CCCC32`
Reply: inactive

Query: Called result for `O=C1c2cccc3cc4ccccc4c(c23)C(=O)N1CCCNCCNCCCN1C(=O)c2cccc3cc4ccccc4c(c23)C1=O`
Reply: active

Query: Called result for `Cc1ccc(S(=O)(=O)Nn2c(S)c(C#N)c(-c3ccc([N+](=O)[O-])cc3)c(C#N)c2=O)cc1`
Reply: inactive

Query: Called result for CC1C(c2ccccc2)N(C)C(c2ccccc2)C(C)C1(O)c1ccccc1 (centres undefined)
Reply: inactive

Query: Called result for COC1C(OC(=O)c2ccc(C)[nH]2)C(O)C(Oc2ccc3c(O)c(NC(=O)c4c[nH]c(C(=O)Nc5c(O)c6ccc(OC7OC(C)(C)C(OC)C(OC(=O)c8ccc(C)[nH]8)C7O)c(C)c6oc5=O)c4C)c(=O)oc3c2C)OC1(C)C (centres undefined)
Reply: inactive

Query: Called result for COC(Cc1ccccc1)NC(C)=O (centres undefined)
Reply: inactive

Query: Called result for `OCCC/N=C1N=C(Cl)/C(=C\c2ccccc2)N\1`
Reply: inactive

Query: Called result for `Fc1ccc2c(c1)SC1=Nc3sc4cc(F)ccc4[n+]3CN12`
Reply: inactive

###

- System: T47D
- run-description: NCI tumour cell line growth inhibition, 48 h
The source made the active and inactive calls. Rule as the data show it: active = GI50 up to about 1.1 µM and inactive = higher.
# key: entry, value: GI50

Examples with answers:
compound: CN(C)c1ccc(-c2ccc(N(C)C)c3n[se]nc23)c2n[se]nc12
value: > 100 µM (inactive)
//
compound: O/N=C(/CC(O)(C(F)(F)F)C(F)(F)F)c1ccccc1
value: > 10 µM (inactive)
//
compound: O=C(c1cccs1)N(C(=O)N1CCN(c2ccccc2)CC1)S(=O)(=O)c1ccccc1
value: 12.7 µM (inactive)

Query: Give GI50 for the following compound: `COc1ccc(/N=C(\C)c2ccncc2)cc1`
Reply: > 100 µM (inactive)

Query: Give GI50 for the following compound: `O=c1[nH]nc(Cc2ccc([N+](=O)[O-])cc2)[nH]1`
Reply: > 100 µM (inactive)

Query: Give GI50 for the following compound: `CSc1n[nH]c2[nH]nc(C)c12`
Reply: > 100 µM (inactive)

Query: Give GI50 for the following compound: `O=C1C(=CNc2ccccc2Cl)C(=O)N(c2ccccc2)C(=O)N1c1ccccc1`
Reply: > 100 µM (inactive)

Query: Give GI50 for the following compound: C#CCOC(=O)C(N)CC(N)=O (stereo not drawn)
Reply: > 69 µM (inactive)
